Measured relative integration efficiency (log2) values are reported for all entries that follow.
B1: library; a variant is named by its letters at N, in order (parent)
chain: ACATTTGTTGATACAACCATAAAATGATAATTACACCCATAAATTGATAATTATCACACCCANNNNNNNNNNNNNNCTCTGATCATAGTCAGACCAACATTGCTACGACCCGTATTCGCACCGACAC

# Variants of: B1
# method: relative integration efficiency (T-LR orientation) vs wild-type transposon end (log2 (normalized fold change)); transposon end mutated: right end (5 bp flank + 75 bp right end); higher = more efficient transposition
# assay_conditions: with VchCAST RNA-guided transposition machinery (E. coli BL21(DE3) host, lacZ target)
observation_type: relative integration efficiency (log2)

• ATTTAACTATAACG T44C = 2.28
• TTAATTGATATTGC = 0.636
• TAAATTGATATTGC T4A = -0.113
• GCCCTTGATATTGC = 2.5
• ATTTAACTATAACG T8G = -5.36
• TAAATTGATATTGC A27T = -0.49
• TAAATTGATATTGC T78A = -0.018
• TAAATTGATATTGC A13G = 0.173
• ATTTAACTATAACG A24T = 2.39
• TATATTGATATCTC C59A = -0.123
• TAAATTGATATTGC A42C = -0.708
• TACCTTGAAATTGC C59A = 1.94
• TAAATTGATATTGC A49T = 0.117
• TAAATTGATATTGC A19C = -1.16
• ATAATTGATATTGC = 1.11
• ATTTAACTATAACG T54A = 2.49
• TAAATTGATATTGC C77T = -0.351
• GCCATTGATATTGC A62C = 2.47
• ATTTAACTATAACG T6A = -4.12
• ATTTAACTATAACG T31C = 2.62
• TAACGGTATATTGC = 2.2
• TAAATTGAATTTGC = 1.16
• ATTTAACTATAACG G10C = 0.7
• TAAATTGATATTGC T25G = -0.0581
• TAAATTGATAGGGC = 1.18
• ATTTAACTATAACG A16G = 2.09
• TAAATTGATATTGC A53G = -0.269
• ATTTAACTATAACG A35C = 2.11
• ATTTAACTATAACG C61A = 2.06
• ATTTAACTATAACG C55G = 2.38
• TAAATTGATATTGC T40C = -0.859
• TAAATTGATATTGC T78G = 0.078
• TAAATTGATATTGC T48C = -0.401
• ATTTAACTATAACG C38T = 2.05
• TAAATTGATATTGC A1C = -0.165
• ATTTAACTATAACG A11G = 1.83
• ATTTAACTATAACG T44G = 2.17
• TAAATTGATATTGC T45C = -0.285
• TAAATTGATATTGC A39T = -0.533
• TAAATTGATATTGC C77A = -0.0608
• TAAATTGATATTGC A29G = -0.293
• TAAATTGATAAACG = 0.342
• TAAATTGATATTGC C57A = 0.461
• AAAATTGATATTGC A62T = 1.67
• TAAATTGATATTGC C37G = -0.169
• TAAATTGATATTGC A43G = -0.246
• TAAATTGATATTGC T4C = -0.0603
• TAAATTGATATTGC A16G = -0.0536
• TAAATTGATATTGC T44A = -0.0417
• TAAATTGATATTGC T6C = -2.11
• TAAATTGATATTGC A13C = -0.613
• ATTTAACTATAACG C38G = 2.06
• TAAATTGATATTGC A56T = 0.0769
• TAAATTGATATTGC T8A = -1.99
• TAAATTGATATTGC C37A = -1.21
• ATTTAACTATAACG C57A = 2.48
• ATTTAACTATAACG = 2.52
• ATTTAACTATAACG T32G = 2.2
• TAAATTGATATTGC C61G = 0.81
• ATTTAACTATAACG A13T = 1.84
• TAAATTGATATTGC A33G = -0.127
• TAAATTGATATTGC T44C = -0.274
• TAAATTGATATTGC A22T = -0.148
• GCAATTGATATTGC = 2.25
• TAAATTGATATTGC C79T = -0.191
• ATTTAACTATAACG T45G = 1.56
• TAAATTGATATTGC A49G = -0.155
• ATTTAACTATAACG A21T = 2
• TAAATTGATATAGC = 0.0501
• ATTTAACTATAACG A47C = 2.63
• TAAATTGATATTGC A33C = 0.14
• ATTTAACTATAACG A53G = 2.24
• TAAATTGATATTGC C17G = -0.402
• ATTTAACTATAACG A19C = 1.06
• TAAATTGATATTGC C57T = 0.91
• TAAATTGACATTGC = 0.353
• ATTTAACTATAACG A42G = 1.19
• ATTATTGATATTGC A62T = 1.96
• TAAATTCTATTTGC = 2.22
• TAAATTGATATTGC A47C = -0.216
• TAAATTGGTATTGC = 0.963
• TAATAACATATTGC = 2.2
• TTTATTGATATTGC = 0.91
• TAAATTGATATTGC A50T = -0.0702
• TAAATGGATATTGC = 1.54
• TAAATTGATATTGC A39G = -0.449
• TAAATTGATATTGC T5G = -0.319
• TAAATTGATATTGC T51C = 0.0609
• TAAATTGATATTGC T54G = 0.247
• TAAATTGATATTGC C60T = 0.2
• TAAATTGATATACG C77G = 0.3

FYI, the data here is from the supplement of paper PMC10201428.
